Below, each entry is listed with its recorded Activity.
Tested on: HT-29
Assay: Cytotoxicity against human HT-29 cells at 100 ug/ml after 12 hrs by neutral red assay
Format: functional
Readout Label: Activity (%)

# Molecule, Measured Result
records = [
    ("COC(=O)[C@]12CC[C@@H](C)[C@H](C)[C@H]1C1=CC[C@@H]3[C@@]4(C)C[C@@H](N=[N+]=[N-])[C@H](N=[N+]=[N-])C(C)(C)[C@@H]4CC[C@@]3(C)[C@]1(C)CC2", 44),
    ("COC(=O)[C@@]1(C)CC[C@]2(C)CC[C@]3(C)C(=CC(=O)[C@@H]4[C@@]5(C)C[C@H](N=[N+]=[N-])[C@@H](N=[N+]=[N-])C(C)(C)[C@@H]5CC[C@]43C)[C@@H]2C1", 42),
    ("COC(=O)[C@]12CC[C@@H](C)[C@H](C)[C@H]1C1=CC[C@@H]3[C@@]4(C)C[C@@H](O)[C@H](O)C(C)(C)[C@@H]4CC[C@@]3(C)[C@]1(C)CC2 [COROSOLIC ACID METHYL ESTER]", 40),
    ("COC(=O)[C@@]1(C)CC[C@]2(C)CC[C@]3(C)C(=CC(=O)[C@@H]4[C@@]5(C)C[C@H](O)[C@@H](O)C(C)(C)[C@@H]5CC[C@]43C)[C@@H]2C1", 39),
    ("COC(=O)[C@]12CC[C@@H](C)[C@H](C)[C@H]1C1=CC[C@@H]3[C@@]4(C)C[C@@H](N)[C@H](N)C(C)(C)[C@@H]4CC[C@@]3(C)[C@]1(C)CC2", 56),
    ("COC(=O)[C@@]1(C)CC[C@]2(C)CC[C@]3(C)C(=CC(=O)[C@@H]4[C@@]5(C)C[C@H](N)[C@@H](N)C(C)(C)[C@@H]5CC[C@]43C)[C@@H]2C1", 48),
]
